# target-entity: Beta-3 Adrenergic Receptor (Homo sapiens (Human), UniProt P13945)
# Sequence (P13945 whole entry, species assumed): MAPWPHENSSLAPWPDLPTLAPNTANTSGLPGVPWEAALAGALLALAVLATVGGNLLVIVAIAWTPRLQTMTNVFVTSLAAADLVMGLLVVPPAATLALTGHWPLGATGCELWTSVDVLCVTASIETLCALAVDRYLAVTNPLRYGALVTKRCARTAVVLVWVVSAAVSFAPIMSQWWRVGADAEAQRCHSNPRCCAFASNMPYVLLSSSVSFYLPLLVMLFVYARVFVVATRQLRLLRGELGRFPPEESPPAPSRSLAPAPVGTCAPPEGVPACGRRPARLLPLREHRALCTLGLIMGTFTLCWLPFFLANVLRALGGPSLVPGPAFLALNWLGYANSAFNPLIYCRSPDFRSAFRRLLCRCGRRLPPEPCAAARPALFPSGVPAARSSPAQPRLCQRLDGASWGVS
# assay-summary: HTRF cAMP antagonist assay (IC50 determination)
# test-conditions: CHO-K1 cells stably expressing recombinant receptor; antagonism of isoproterenol at EC90; cAMP readout
recorded-metric: IC50 (nM)

Observe how each entry below is paired with its result.
{"columns": ["compound", "recorded-metric", "measurement-unit", "reported-measurement"],
 "data": [
  ["CN1CCOc2cc(S(=O)(=O)N3CCC4(CC3)C[C@@H](NC[C@H](O)COc3cccc(S(=O)(=O)C5CC5)c3)CO4)cnc21", "IC50", "nM", 34.2],
  ["CC(C)S(=O)(=O)c1cccc(OC[C@@H](O)CN[C@H]2COC3(CCN(S(=O)(=O)c4cnc5cc[nH]c5c4)CC3)C2)c1", "IC50", "nM", 17.8]
]}

a = NC1(c2ccc(-c3cccc(S(=O)(=O)N4CCC5(CC4)C[C@H](NC[C@H](O)COc4cccc(S(=O)(=O)C6(CO)CC6)c4)CO5)c3)cc2)CC1
b = O=S(=O)(CCO)c1cccc(OC[C@@H](O)CN[C@H]2COC3(CCN(S(=O)(=O)c4cccc5cnccc45)CC3)C2)c1
c = O=S(=O)(CCCC(F)(F)F)c1cccc(OC[C@@H](O)CNC2COC3(CCN(S(=O)(=O)c4ccc5ccccc5c4)CC3)C2)c1 (some centres unmarked)
d = O=S(=O)(CCO)c1cccc(OC[C@@H](O)CN[C@H]2COC3(CCN(S(=O)(=O)c4cccc(-c5ncccc5F)c4)CC3)C2)c1
e = CC(C)S(=O)(=O)c1cccc(OC[C@@H](O)CN[C@H]2COC3(CCN(S(=O)(=O)c4cnc5ccccc5c4)CC3)C2)c1
Data request: Arrange the 5 compounds by rising IC50, starting with the smallest. As an answer, provide the labels arranged in the order called for.
Data returned: e, a, c, d, b
(e: 11.6 nM, a: 26.7 nM, c: 56.7 nM, d: 126 nM, b: 277 nM)

A = CCOc1ccc(-c2ccc(C3(N)CC3)cc2)cc1S(=O)(=O)N1CCC2(CC1)C[C@H](NC[C@H](O)COc1cccc(S(=O)(=O)C3CC3)c1)CO2
B = O=c1[nH]c2cc(S(=O)(=O)N3CCC4(CC3)C[C@@H](NC[C@H](O)COc3cccc(S(=O)(=O)C5CC5)c3)CO4)cnc2[nH]1
Data request: Which entry has a larger number for IC50, A or B ? Choose, then provide that item's label.
Data returned: B
(B: 57.9 nM, A: 29.3 nM)

P = CCOc1ccc(-c2ccc(CN)cc2)cc1S(=O)(=O)N1CCC2(CC1)C[C@H](NC[C@H](O)COc1cccc(S(=O)(=O)C(C)(C)CO)c1)CO2
Q = NC(=O)CS(=O)(=O)c1cccc(OC[C@@H](O)CN[C@H]2COC3(CCN(S(=O)(=O)c4cnc5ccccc5c4)CC3)C2)c1
R = O=S(=O)(c1cccc(OC[C@@H](O)CNC2COC3(CCN(S(=O)(=O)c4ccc5ccccc5c4)CC3)C2)c1)C1CNC1 (some centres unmarked)
Data request: Arrange the 3 compounds by rising IC50, starting with the smallest. As an answer, provide the labels arranged in the order called for.
Data returned: P, Q, R
(P: 33.4 nM, Q: 53.2 nM, R: 252 nM)

P = CS(=O)(=O)c1cccc(OC[C@@H](O)CNC2COC3(CCN(S(=O)(=O)c4ccc(Cl)c5nonc45)CC3)C2)c1 (some centres unmarked)
Q = CS(=O)(=O)c1cccc(OC[C@@H](O)CNC2COC3(CCN(C(=O)c4ccc5cc[nH]c5c4)CC3)C2)c1 (some centres unmarked)
Data request: Which entry has a larger number for IC50, P or Q ? Choose, then provide that item's label.
Data returned: Q

Every entry's value here was drawn from patent US10927123B2.
